test system: B cell receptor-mediated activation of B cells in human blood (CD69 expression); assay: Inhibition of B cell activation in whole blood measured by CD69 expression; type: cell-based; settings: anti-IgM stimulation, 20 h, 50% decrease of CD69-positive cells that are also CD20-positive
pIC50: −log10 of the molar value.

{"Molecule": "Cn1cc(-c2cccc(-n3ncc4cc(C(C)(C)C)cc(F)c4c3=O)c2CO)cc(Nc2ccc(C(=O)N3CCOCC3)cn2)c1=O [Example I-9]", "pIC50": 9.00}
{"Molecule": "Cn1cc(-c2cccc(-n3ccc4cc(C(C)(C)C#N)cc(F)c4c3=O)c2CO)cc(Nc2ccc(OCCO)cn2)c1=O [Example I-65]", "pIC50": 7.72}
{"Molecule": "CCc1ccc(Nc2cc(-c3cccc(-n4ncc5cc(C(C)(C)C)cc(F)c5c4=O)c3CO)cn(C)c2=O)nc1 [Example I-33]", "pIC50": 6.66}
{"Molecule": "CN1CCN(Cc2ccc(Nc3cc(-c4cccc(N5CCc6cc(C7CC7)cc(F)c6C5=O)c4CO)cn(C)c3=O)nc2)CC1 [Example I-11]", "pIC50": 7.24}
{"Molecule": "Cn1cc(-c2cccc(-n3ncc4cc(C(C)(C)C)cc(F)c4c3=O)c2CO)cc(Nc2ccc(N3C[C@H]4CC[C@@H](C3)N4)cn2)c1=O [Example I-87]", "pIC50": 7.62}
{"Molecule": "Cn1cc(-c2cccc(-n3ncc4cc(C(C)(C)C)cc(F)c4c3=O)c2CO)cc(NC2=NCCO2)c1=O [Example I-40]", "pIC50": 6.08}
{"Molecule": "Cc1c(-c2cc(Nc3ccc(N4CCN(C)CC4)cn3)c(=O)n(C)c2)cccc1-n1ncc2cc(C(C)(C)C)cc(F)c2c1=O [Example I-28]", "pIC50": 6.74}
{"Molecule": "CC(C)NCc1ccc(Nc2cc(-c3cccc(-n4ncc5cc(C(C)(C)C)cc(F)c5c4=O)c3CO)cn(C)c2=O)nc1 [Example I-43]", "pIC50": 7.82}
{"Molecule": "CN1CCN(c2ccc(Nc3cc(-c4cccc(-n5ccc6cc(C7CC7)cc(F)c6c5=O)c4CO)cn(C)c3=O)nc2)CC1 [Example I-54]", "pIC50": 7.85}
{"Molecule": "CN1CCN(c2ccc(Nc3cc(-c4cccc(-n5ccc6cc(C7(C)CC7)cc(F)c6c5=O)c4CO)cn(C)c3=O)nc2)CC1 [Example I-55]", "pIC50": 7.80}
{"Molecule": "CCNCc1ccc(Nc2cc(-c3cccc(-n4ccc5cc(C6CC6)cc(F)c5c4=O)c3CO)cn(C)c2=O)nc1 [Example I-77]", "pIC50": 7.70}
{"Molecule": "CC(O)c1ccc(Nc2cc(-c3cccc(-n4ncc5cc(C(C)(C)C)cc(F)c5c4=O)c3CO)cn(C)c2=O)nc1 (stereo not shown) [Example I-36]", "pIC50": 7.23}
{"Molecule": "CN1CCN(Cc2ccc(Nc3cc(-c4cccc(-n5ncc6cc(C(C)(C)C)cc(F)c6c5=O)c4CO)cn(C)c3=O)nc2)CC1 [Example I-15]", "pIC50": 8.15}
